- target_or_system: galectin-1 (Homo sapiens, UniProt P09382)
- Sequence (P09382 whole entry): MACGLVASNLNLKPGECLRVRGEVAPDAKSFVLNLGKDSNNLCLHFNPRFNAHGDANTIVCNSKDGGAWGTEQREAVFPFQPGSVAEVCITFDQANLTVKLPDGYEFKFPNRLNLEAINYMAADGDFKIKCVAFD
- assay: Fluorescence anisotropy assay, affinity for galectin-1
- experimental_setup: compound as inhibitor of the interaction between galectin and a fluorescein tagged saccharide probe; read-out: Gal-1 Kd
readout_label: Kd (nM)
The reply should be a number in nM, with the unit left off.

// below: answered compounds
| compound | readout_label | recorded_value |
| --- | --- | --- |
| OCC1O[C@@H](c2ccnn2-c2cc(Cl)ccc2C(F)(F)F)C(O)C(n2cc(-c3ncc(Cl)s3)nn2)[C@H]1O (stereo partly drawn) [Example 10] | Kd | 43 |
| COC1C(n2cc(-c3csc(N)n3)nn2)[C@@H](O)C(CO)O[C@H]1c1ccnn1-c1cc(Cl)ccc1C(F)(F)F (stereo partly drawn) [Example 34] | Kd | 49 |

Query :: Kd lookup needed for COC1C(n2cc(-c3cscn3)nn2)[C@@H](O)C(CO)O[C@H]1c1ccnn1-c1cc(Cl)ccc1C(F)(F)F (stereo partly drawn) [Example 38] , thanks.
Result :: 120

All figures here come from patent US20240132531A1.
